System: MDA-MB-231 human breast cancer cells
RUN_DESCRIPTION: Cell proliferation assay (CellTiter-Glo, 72 hours treatment)
Format: cell-based
CONDITION_NOTES: Homo sapiens; MDA-MB-231 cells, 72 hours at 37° C., CellTiter-Glo; read-out: MDA-MB-231 cell proliferation assay (IC50)
QUANTITY_MEASURED: IC50

Look over these answered cases.
CN(C)C(=O)[C@H]1[C@@H](O)[C@@]2(O)c3ncccc3O[C@@]2(c2ccc(C#N)cc2)[C@@H]1c1ccccc1 (single isomer, unassigned) :: > 1000 nM
COc1cnc2c(c1)O[C@@]1(c3ccc(C#N)cc3)[C@H](c3ccccc3)[C@@H](C(=O)N(C)C)[C@@H](O)[C@@]21O (single isomer, unassigned) :: 100 to 1000 nM
N#Cc1ccc([C@@]23Oc4cc(Cl)cnc4[C@]2(O)[C@H](O)[C@@H](CN2CCCC2)[C@H]3c2ccccc2)cc1 (racemic) [41Fa] :: > 1000 nM
COc1cncc2c1[C@]1(O)[C@@H](CNC3COC3)[C@H](CO)[C@@H](c3ccccc3)[C@]1(c1ccc(C#N)cc1)O2 (racemic) [186F] :: < 100 nM
COc1cncc2c1[C@]1(O)[C@H](O)[C@H](CN(C)Cc3ccccc3)[C@@H](c3ccccc3)[C@]1(c1ccc(C#N)cc1)O2 (racemic) [76F] :: < 100 nM

For the molecule COc1cncc2c1[C@]1(O)[C@H](O)[C@H](CNCCO)[C@@H](c3ccccc3)[C@]1(c1ccc(C#N)cc1)O2 (racemic) [79F] , give its reported IC50.
> 1000 nM

Complete the entry with IC50 for COC1=C(C(=O)N(C)C)[C@@H](c2ccccc2)[C@]2(c3ccc(Br)cc3)Oc3cc(Cl)cnc3[C@]12O (racemic) [35F]
> 1000 nM

In one line, give reported IC50 of the entry COc1cncc2c1[C@]1(O)[C@H](O)[C@H](C(=O)N(C)CC(F)F)[C@@H](c3ccccc3)[C@]1(c1ccc(Br)cc1)O2 (racemic) [111F] .
< 100 nM

Please look at this molecule and report its IC50: COc1cncc2c1[C@]1(O)[C@H](O)[C@H](CN(C)C)[C@@H](c3ccccc3)[C@]1(c1ccc(Cl)cc1)O2 (single isomer, unassigned) [272F]
< 100 nM

Give reported IC50 value for N#Cc1ccc([C@@]23Oc4cc(C#N)cnc4[C@]2(O)[C@@H](CN)C[C@H]3c2ccccc2)cc1 (racemic) [176F]
100 to 1000 nM

Identify the reported IC50 for the following entry. COc1nc(C#N)cc2c1[C@]1(O)[C@H](O)[C@H](CN3CCC(F)CC3)[C@@H](c3ccccc3)[C@]1(c1ccc(C#N)cc1)O2 (racemic) [156Fc]
< 100 nM

Using known records, supply IC50 for CS(=O)(=O)[C@H]1[C@@H](O)[C@@]2(O)c3ncc(C#N)cc3O[C@@]2(c2ccc(C#N)cc2)[C@@H]1c1ccccc1 [86F]
> 1000 nM
